# target.under.test: ERBB2 (human)
# experiment.summary: radiometric filter-binding kinase assay, Kinase HotSpot
# test.context: compound 0.5 µM; ATP 10 µM
Examples of compounds with documented residual activity follow.
measurement.type: residual activity (%)

1. Nc1ncnc2c1c(-c1ccc(Oc3ccccc3)cc1)cn2C1CCCC1; 101
2. N#CC(C#N)=C(N)/C(C#N)=C/c1ccc(O)cc1; 90.1
3. Cc1ccc(S(=O)(=O)/C=C/C#N)cc1; 94.2

====

# target.under.test: FGR (human)
# experiment.summary: radiometric filter-binding kinase assay, Kinase HotSpot
# test.context: compound 0.5 µM; ATP 10 µM
Collected residual activity values appear next to each entry.
measurement.type: residual activity

1) CCN(CC)CCNC(=O)c1c(C)[nH]c(/C=C2\C(=O)Nc3ccc(F)cc32)c1C; 16.4%
2) COc1cc2ncnc(Nc3cccc(Cl)c3)c2cc1OC; 75.3%
3) CCN(CC)C(=O)c1ccc(Nc2nc(OCC3CCCCC3)c3nc[nH]c3n2)cc1; 54.2%
4) O=C1NC(=O)C(c2cn(CCCn3ccnc3)c3ccccc23)=C1Nc1ccccc1; 86.3%
5) Cc1[nH]c(/C=C2\C(=O)Nc3ccc(S(=O)(=O)N(C)c4cccc(Cl)c4)cc32)c(C)c1C(=O)N1CCN(C)CC1; 39.2%
6) O=S(=O)(c1cccc2cnccc12)N1CCCNCC1; 90.5%
7) N#C/C(=C(/N)Sc1ccc(N)cc1)c1ccccc1C(F)(F)F; 101%
8) COc1ccc2c(c[n+](C)c3c4cc5c(cc4ccc23)OCO5)c1OC; 91.3%
9) CNc1cc2c(Nc3cccc(Br)c3)ncnc2cn1; 88.3%
10) CNC(=O)c1cc(Oc2ccc(NC(=O)Nc3ccc(Cl)c(C(F)(F)F)c3)cc2)ccn1; 88.7%
11) Cc1ccc(S(=O)(=O)/C=C/C#N)cc1; 100%
12) O=C1NC(=O)/C(=C/c2ccc3c(c2)OC(F)(F)O3)S1; 95.8%
13) c1ccc(-c2n[nH]cc2-c2ccnc3ccccc23)nc1; 91.9%
14) O=C(Nc1cccc(Nc2nccc(Nc3cccc(C(F)(F)F)c3)n2)c1)C1CC1; 80.9%
15) COc1ccc(COc2ccc(Cc3cnc(N)nc3N)cc2OC)cc1; 92.3%
16) CCC(=O)Nc1ccc2ncnc(Nc3cccc(Br)c3)c2c1; 93.2%
17) Nc1ncnc2c1c(-c1ccc(Oc3ccccc3)cc1)cn2C1CCCC1; 2.93%
18) O=C1NC(=O)c2c1c1c3ccccc3n3c1c1c2c2ccccc2n1C1CCC3O1; 30.9%
19) CCCC(=O)Oc1ccc2[nH]c(C(=O)c3cc4ccccc4[nH]3)cc2c1; 88.4%
20) N#CC(C#N)=C(N)/C(C#N)=C/c1ccc(O)cc1; 98.7%
21) CC#CC(=O)Nc1cc2c(Nc3ccc(F)c(Cl)c3)ncnc2cn1; 89.6%

====

# target.under.test: UniProtKB Q9P0L2
# Sequence (Q9P0L2 whole entry, looked up): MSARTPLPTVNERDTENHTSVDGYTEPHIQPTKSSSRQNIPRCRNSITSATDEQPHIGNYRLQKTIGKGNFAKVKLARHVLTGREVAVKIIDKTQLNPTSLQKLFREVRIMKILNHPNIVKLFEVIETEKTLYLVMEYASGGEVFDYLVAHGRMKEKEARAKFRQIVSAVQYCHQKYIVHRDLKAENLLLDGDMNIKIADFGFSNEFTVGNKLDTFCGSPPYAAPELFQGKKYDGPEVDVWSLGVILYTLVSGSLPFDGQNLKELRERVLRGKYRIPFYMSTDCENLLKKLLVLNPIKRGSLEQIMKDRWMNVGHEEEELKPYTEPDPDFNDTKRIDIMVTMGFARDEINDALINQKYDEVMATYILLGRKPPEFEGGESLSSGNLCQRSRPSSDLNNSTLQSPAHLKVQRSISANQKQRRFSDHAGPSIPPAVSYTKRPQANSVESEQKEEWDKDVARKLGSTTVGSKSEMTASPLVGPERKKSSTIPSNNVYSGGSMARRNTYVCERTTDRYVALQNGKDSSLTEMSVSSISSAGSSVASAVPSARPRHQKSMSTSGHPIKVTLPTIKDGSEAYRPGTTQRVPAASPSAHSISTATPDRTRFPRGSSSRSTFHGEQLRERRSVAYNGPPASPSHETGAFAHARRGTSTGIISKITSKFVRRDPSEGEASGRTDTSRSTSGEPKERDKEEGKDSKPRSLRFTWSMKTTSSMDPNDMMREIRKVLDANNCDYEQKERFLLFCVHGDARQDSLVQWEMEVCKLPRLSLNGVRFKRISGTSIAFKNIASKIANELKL
# experiment.summary: radiometric filter-binding kinase assay, Kinase HotSpot
# test.context: compound 0.5 µM; ATP 10 µM
Recorded residual activity values for a group of molecules are listed next.
measurement.type: residual activity (%)

1. CCN(CC)CCNC(=O)c1c(C)[nH]c(/C=C2\C(=O)Nc3ccc(F)cc32)c1C; 40.9
2. Cc1ccc(Nc2nccc(N(C)c3ccc4c(C)n(C)nc4c3)n2)cc1S(N)(=O)=O; 99.9
3. CCN(CC)C(=O)c1ccc(Nc2nc(OCC3CCCCC3)c3nc[nH]c3n2)cc1; 82.7
4. O=S(=O)(c1cccc2cnccc12)N1CCCNCC1; 98.6
5. CC[n+]1c(/C=C/N(C)c2ccccc2)n(-c2ccccc2)c2ccc(-c3nc4ccccc4s3)cc21; 104
